Reported values of melting temperature for individual entries
# Test system: HeLa Kyoto;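 further: HeLa Kyoto cells synchronized by double thymidine or nocodazole block, proteins quantified by TMT10plex mass spectrometry, three independent biological replicates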
# Measurement protocol: melting temperature (median over replicates), in situ; higher = more thermally stable
# Condition notes: cell cycle stage: mitosis
Only the number, expressed in °C, is required.

// worked examples, melting temperature included
MTDLVAVWDVALSDGVHKIEFEHGTTSGKRVVYVDGKEEIRKEWMFKLVGKETFYVGAAKTKATINIDAISGFAYEYTLEINGKSLKKYMEDRSKTTNTWVLHMDGENFRIVLEKDAMDVWCNGKKLETAGEFVDDGTETHFSIGNHDCYIKAVSSGKRKEGIIHTLIVDNREIPEIAS [FAIM] = 49.1
MEQLRAAARLQIVLGHLGRPSAGAVVAHPTSGTISSASFHPQQFQYTLDNNVLTLEQRKFYEENGFLVIKNLVPDADIQRFRNEFEKICRKEVKPLGLTVMRDVTISKSEYAPSEKMITKVQDFQEDKELFRYCTLPEILKYVECFTGPNIMAMHTMLINKPPDSGKKTSRHPLHQDLHYFPFRPSDLIVCAWTAMEHISRNNGCLVVLPGTHKGSLKPHDYPKWEGGVNKMFHGIQDYEENKARVHLVMEKGDTVFFHPLLIHGSGQNKTQGFRKAISCHFASADCHYIDVKGTSQENIEKEVVGIAHKFFGAENSVNLKDIWMFRARLVKGERTNL [PHYH] = 52.4

Attention now shifts to the item below.
### Prompt Record lookup: for HeLa Kyoto, what melting temperature belongs to MTKAGSKGGNLRDKLDGNELDLSLSDLNEVPVKELAALPKATILDLSCNKLTTLPSDFCGLTHLVKLDLSKNKLQQLPADFGRLVNLQHLDLLNNKLVTLPVSFAQLKNLKWLDLKDNPLDPVLAKVAGDCLDEKQCKQCANKVLQHMKAVQADQERERQRRLEVEREAEKKREAKQRAKEAQERELRKREKAEEKERRRKEYDALKAAKREQEKKPKKEANQAPKSKSGSRPRKPPPRKHTRSWAVLKLLLLLLLFGVAGGLVACRVTELQQQPLCTSVNTIYDNAVQGLRRHEILQWVLQTDSQQ [LRRC59] ?
### Response 54

Every entry's value here was drawn from the supplement of paper PMC5998384.
